System: 786-O
Assay: GI50 of drug in presence of dasatinib; higher = less potent
Conditions: treatment: drug + dasatinib (fixed dose, not stated); 5 days
Measurement Name: log10(GI50 of drug) (log10 of the value in µM)
Recorded GI50 of drug (log10, µM)

Some compounds with known log10(GI50 of drug) results, for comparison:
{"Compound": "CCS(=O)(=O)Nc1ccc2c(c1)/C(=C(/Nc1ccc(CN3CCCCC3)cc1)c1ccccc1)C(=O)N2 [Hesperadin] + Cc1nc(Nc2ncc(C(=O)Nc3c(C)cccc3Cl)s2)cc(N2CCN(CCO)CC2)n1", "System Name": "786-O", "log10(GI50 of drug)": -1.33}
{"Compound": "CC(C)n1nc(-c2cc3cc(O)ccc3[nH]2)c2c(N)ncnc21 [PP242] + Cc1nc(Nc2ncc(C(=O)Nc3c(C)cccc3Cl)s2)cc(N2CCN(CCO)CC2)n1", "System Name": "786-O", "log10(GI50 of drug)": -0.15}
{"Compound": "CCn1nnc2c(N3CCOCC3)nc(-c3ccc(NC(=O)Nc4ccc(C(=O)N5CCN(C)CC5)cc4)cc3)nc21 [PKI-402] + Cc1nc(Nc2ncc(C(=O)Nc3c(C)cccc3Cl)s2)cc(N2CCN(CCO)CC2)n1", "System Name": "786-O", "log10(GI50 of drug)": -1.01}

[ask] Need log10(GI50 of drug) of CN(C)Cc1cccc(N/C(=C2\C(=O)Nc3cc(C(=O)N(C)C)ccc32)c2ccccc2)c1 + Cc1nc(Nc2ncc(C(=O)Nc3c(C)cccc3Cl)s2)cc(N2CCN(CCO)CC2)n1 , thanks.
[reply] 0.57

[ask] Need log10(GI50 of drug) of COC1=CC(c2cc3ccccc3[nH]2)=N/C1=C\c1[nH]c(C)cc1C.CS(=O)(=O)O [Obatoclax mesylate (GX15-070)] + Cc1nc(Nc2ncc(C(=O)Nc3c(C)cccc3Cl)s2)cc(N2CCN(CCO)CC2)n1 , thanks.
[reply] -1.50

[ask] Need log10(GI50 of drug) of N#C/C(=C\c1ccc(O)c(O)c1)C(=O)NCc1ccccc1 [AG-490] + Cc1nc(Nc2ncc(C(=O)Nc3c(C)cccc3Cl)s2)cc(N2CCN(CCO)CC2)n1 , thanks.
[reply] 0.39

[ask] Need log10(GI50 of drug) of C=CC(=O)Nc1cccc(Oc2nc(Nc3ccc(N4CCN(C)CC4)cc3OC)ncc2Cl)c1 [WZ4002] + Cc1nc(Nc2ncc(C(=O)Nc3c(C)cccc3Cl)s2)cc(N2CCN(CCO)CC2)n1 , thanks.
[reply] 0.40

[ask] Need log10(GI50 of drug) of COc1ccc(-c2ccc3c(N4CCOC[C@@H]4C)nc(N4CCOC[C@@H]4C)nc3n2)cc1CO [AZD8055] + Cc1nc(Nc2ncc(C(=O)Nc3c(C)cccc3Cl)s2)cc(N2CCN(CCO)CC2)n1 , thanks.
[reply] -2.14

----------
Quick reference for GI50, drug alone among some molecules
Test system: UO-31
Assay: GI50, drug alone; higher = less potent
Settings: treatment: drug alone; 5 days
Respond numerically; units are µM and should not be typed.

{"Molecule": "NC1(Cc2ccc(Cl)cc2)CCN(c2ncnc3[nH]ccc23)CC1", "GI50, drug alone (µM)": 3.8}

[ask] Need GI50, drug alone of Cc1cc(Nc2nc(N[C@@H](C)c3ccc(F)cc3)c(C#N)cc2F)n[nH]1 [AZ 960] , thanks.
[reply] 0.789

[ask] Need GI50, drug alone of Oc1cccc(-c2nc(N3CCOCC3)c3oc4ncccc4c3n2)c1 [PI-103] , thanks.
[reply] 0.339

[ask] Need GI50, drug alone of Cn1cc(-c2ccc3ncc(Cc4ccc5ncccc5c4)n3n2)cn1 [NVP-BVU972] , thanks.
[reply] 1.4

----------
Tested on: ACHN
Test: GI50 of drug in presence of dasatinib; higher = less potent
Settings: treatment: drug + dasatinib (fixed dose, not stated); 5 days
Measurement Name: GI50 of drug
Report the figure along with its unit, number first.

Some molecules with known GI50 of drug results, for comparison:
{"Molecule": "Cc1cc(Nc2cc(CN3CCOCC3)c3nc(C)c(Cc4ccc(Cl)cc4F)n3n2)[nH]n1 + Cc1nc(Nc2ncc(C(=O)Nc3c(C)cccc3Cl)s2)cc(N2CCN(CCO)CC2)n1 [dasatinib]", "GI50 of drug": "436 nM"}
{"Molecule": "C[C@@H](Oc1cc(-c2cnn(C3CCNCC3)c2)cnc1N)c1c(Cl)ccc(F)c1Cl + Cc1nc(Nc2ncc(C(=O)Nc3c(C)cccc3Cl)s2)cc(N2CCN(CCO)CC2)n1 [dasatinib]", "GI50 of drug": "475 nM"}

Continue with the molecule presented below.
[ask] Find GI50 of drug (ACHN) for the entry COc1cc2c(N3CCN(C(=O)Nc4ccc(OC(C)C)cc4)CC3)ncnc2cc1OCCCN1CCCCC1 [Tandutinib (MLN518)] + Cc1nc(Nc2ncc(C(=O)Nc3c(C)cccc3Cl)s2)cc(N2CCN(CCO)CC2)n1 [dasatinib]
[reply] 3270 nM

----------
Tested on: 769-P
Assay: AUC of dose-response viability curve, drug + dasatinib, normalised to DMSO (arbitrary (AUC of normalised viability)); higher = less growth inhibition
Settings: treatment: drug + dasatinib (fixed dose, not stated); 5 days
Quick reference for AUC of dose-response viability curve among some compounds
Quick one: just the number, no unit, thanks!

Some compounds with known AUC of dose-response viability curve results, for comparison:
{"Compound": "CC(C)(C)c1nc(-c2cccc(NS(=O)(=O)c3c(F)cccc3F)c2F)c(-c2ccnc(N)n2)s1 + Cc1nc(Nc2ncc(C(=O)Nc3c(C)cccc3Cl)s2)cc(N2CCN(CCO)CC2)n1", "AUC of dose-response viability curve": 2.36}
{"Compound": "O=C1NC(=O)/C(=C/c2ccc3nccc(-c4ccncc4)c3c2)S1 + Cc1nc(Nc2ncc(C(=O)Nc3c(C)cccc3Cl)s2)cc(N2CCN(CCO)CC2)n1", "AUC of dose-response viability curve": 1.8}
{"Compound": "Cc1cc(Nc2cc(N3CCN(C)CC3)nc(Sc3ccc(NC(=O)C4CC4)cc3)n2)n[nH]1 [VX-680 (MK-0457, Tozasertib)] + Cc1nc(Nc2ncc(C(=O)Nc3c(C)cccc3Cl)s2)cc(N2CCN(CCO)CC2)n1", "AUC of dose-response viability curve": 1.79}

[ask] Find AUC of dose-response viability curve (769-P) for the entry Cc1[nH]c(/C=C2\C(=O)Nc3ccc(S(=O)(=O)Cc4c(Cl)cccc4Cl)cc32)c(C)c1C(=O)N1CCC[C@@H]1CN1CCCC1 + Cc1nc(Nc2ncc(C(=O)Nc3c(C)cccc3Cl)s2)cc(N2CCN(CCO)CC2)n1
[reply] 2.14

[ask] Find AUC of dose-response viability curve (769-P) for the entry CO[C@H]1C[C@H]2CC[C@@H](C)[C@@](O)(O2)C(=O)C(=O)N2CCCC[C@H]2C(=O)O[C@H]([C@H](C)C[C@@H]2CC[C@H](OP(C)(C)=O)[C@H](OC)C2)CC(=O)[C@H](C)/C=C(\C)[C@@H](O)[C@@H](OC)C(=O)[C@H](C)C[C@H](C)/C=C/C=C/C=C/1C (stereo in doubt) [Deforolimus (Ridaforolimus)] + Cc1nc(Nc2ncc(C(=O)Nc3c(C)cccc3Cl)s2)cc(N2CCN(CCO)CC2)n1
[reply] 1.71

----------
System: TK-10
Experiment: minimum viability across doses, drug alone, relative to DMSO (fraction); higher = less growth inhibition
Details: treatment: drug alone; 5 days
Quick reference for minimum viability across doses among some molecules
Quick one: just the number, no unit, thanks!

{"Smiles Code": "Oc1cc(O)cc(/C=C/c2ccc(O)c(O)c2)c1", "minimum viability across doses": 0.685}
{"Smiles Code": "CCCNC(=O)Nc1ccc(Oc2ncnc3cc(OC)c(OC)cc23)cc1Cl", "minimum viability across doses": 0.664}
{"Smiles Code": "C=CC(=O)Nc1cccc(Oc2nc(Nc3ccc(N4CCN(C)CC4)cc3OC)ncc2Cl)c1", "minimum viability across doses": 0.0574}

Continue with the molecule presented below.
[ask] Need minimum viability across doses of CNC(=O)c1cc(Oc2ccc(NC(=O)Nc3ccc(Cl)c(C(F)(F)F)c3)c(F)c2)ccn1 , thanks.
[reply] 0.536

----------
Tested on: UO-31
Assay: minimum viability across doses, drug alone, relative to DMSO (fraction); higher = less growth inhibition
Conditions: treatment: drug alone; 5 days
Quick rule for you: minimum viability across doses under 0.01 gets condition met, anything else gets condition not met.

{"Compound": "Nc1nc(N)c2nc(-c3cccc(O)c3)cnc2n1", "Qualitative Label": "condition not met"}
{"Compound": "COc1cc(Nc2c(C#N)cnc3cc(OCCCN4CCN(C)CC4)c(OC)cc23)c(Cl)cc1Cl [Bosutinib (SKI-606)]", "Qualitative Label": "condition met"}
{"Compound": "O=C(NC[C@H](O)CO)c1ccncc1Nc1ccc(I)cc1F", "Qualitative Label": "condition not met"}
{"Compound": "COc1cc2nccc(Oc3ccc(NC(=O)Nc4cc(C)on4)c(Cl)c3)c2cc1OC", "Qualitative Label": "condition met"}
{"Compound": "CN(c1ncccc1CNc1nc(Nc2ccc3c(c2)CC(=O)N3)ncc1C(F)(F)F)S(C)(=O)=O.O=S(=O)(O)c1ccccc1", "Qualitative Label": "condition not met"}

[ask] Determine if CCN(CCO)CCCOc1ccc2c(Nc3cc(CC(=O)Nc4cccc(F)c4)n[nH]3)ncnc2c1 shows minimum viability across doses strictly lower than 0.01.
[reply] condition not met

[ask] Determine if CCS(=O)(=O)Nc1ccc2c(c1)/C(=C(/Nc1ccc(CN3CCCCC3)cc1)c1ccccc1)C(=O)N2 shows minimum viability across doses strictly lower than 0.01.
[reply] condition not met

[ask] Determine if CNC(=O)CN1CCC(Oc2cc3c(Nc4cccc(Cl)c4F)ncnc3cc2OC)CC1 shows minimum viability across doses strictly lower than 0.01.
[reply] condition not met

[ask] Determine if C=CCc1cccc(/C=N/NC(=O)CN2CCN(Cc3ccccc3)CC2)c1O shows minimum viability across doses strictly lower than 0.01.
[reply] condition not met

[ask] Determine if Cc1cc(C)c(/C=C2\C(=O)Nc3ccccc32)[nH]1 [Semaxanib (SU5416)] shows minimum viability across doses strictly lower than 0.01.
[reply] condition not met

[ask] Determine if CC(=O)Nc1ccc(NC(=S)NC(=O)c2ccc(C(C)(C)C)cc2)cc1 shows minimum viability across doses strictly lower than 0.01.
[reply] condition met

[ask] Determine if COc1cc(OC)c(/C=C/S(=O)(=O)Cc2ccc(OC)c(NCC(=O)[O][Na])c2)c(OC)c1 shows minimum viability across doses strictly lower than 0.01.
[reply] condition met

[ask] Determine if NC(=O)Nc1sc(-c2ccc(F)cc2)cc1C(N)=O shows minimum viability across doses strictly lower than 0.01.
[reply] condition not met

[ask] Determine if COc1cc(N2CCC(N3CCN(C)CC3)CC2)ccc1Nc1ncc(Cl)c(Nc2ccccc2S(=O)(=O)C(C)C)n1 shows minimum viability across doses strictly lower than 0.01.
[reply] condition not met

[ask] Determine if CCN1CCN(c2ccc(Nc3cc(N(C)C(=O)Nc4c(Cl)c(OC)cc(OC)c4Cl)ncn3)cc2)CC1 shows minimum viability across doses strictly lower than 0.01.
[reply] condition not met

[ask] Determine if Cn1cnc(N)c2ncnc1-2 shows minimum viability across doses strictly lower than 0.01.
[reply] condition not met

[ask] Determine if Cc1ccccc1-n1c(Cn2cnc3c(N)ncnc32)nc2cccc(C)c2c1=O shows minimum viability across doses strictly lower than 0.01.
[reply] condition not met

[ask] Determine if CCOc1cc2ncc(C#N)c(Nc3ccc(F)c(Cl)c3)c2cc1NC(=O)/C=C/CN(C)C [Pelitinib (EKB-569)] shows minimum viability across doses strictly lower than 0.01.
[reply] condition not met

[ask] Determine if CN1CCN(c2ccc3nc(-c4c(N)c5c(F)cccc5[nH]c4=O)[nH]c3c2)CC1 shows minimum viability across doses strictly lower than 0.01.
[reply] condition not met

[ask] Determine if O=C(Nc1cccc(Nc2ncc(Br)c(NCCc3cnc[nH]3)n2)c1)N1CCCC1 shows minimum viability across doses strictly lower than 0.01.
[reply] condition not met

[ask] Determine if Oc1cccc(-c2nc(N3CCOCC3)c3oc4ncccc4c3n2)c1 shows minimum viability across doses strictly lower than 0.01.
[reply] condition met

[ask] Determine if OCCn1cc(-c2cnc3nnn(Cc4ccc5ncccc5c4)c3n2)cn1 shows minimum viability across doses strictly lower than 0.01.
[reply] condition not met

[ask] Determine if C[C@@H](N)[C@H]1CC[C@H](C(=O)Nc2ccncc2)CC1.Cl.Cl shows minimum viability across doses strictly lower than 0.01.
[reply] condition not met

[ask] Determine if CN(C)C1CCN(C(=O)c2ccc(NC(=O)Nc3ccc(-c4nc(N5CCOCC5)nc(N5CCOCC5)n4)cc3)cc2)CC1 shows minimum viability across doses strictly lower than 0.01.
[reply] condition not met
